Target: T1, biotinylated CRH (human and mouse, not fully specified; biotinylated, position not stated)
T1 construct: also called Biotin-CRH; biotin-labeled CRH
T1 peptide: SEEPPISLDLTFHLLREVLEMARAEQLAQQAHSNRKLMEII
Assay: Octet BLI, biotinylated CRH on SA sensor
measurement name: Kd

query: What does the record list as Kd for PR302334-26 (antibody, human IgG1, kappa, V domains shown, Humanized variant of PR302334) VH: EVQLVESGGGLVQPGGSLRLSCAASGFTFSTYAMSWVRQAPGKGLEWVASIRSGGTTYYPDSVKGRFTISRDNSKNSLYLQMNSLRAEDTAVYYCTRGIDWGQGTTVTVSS VL: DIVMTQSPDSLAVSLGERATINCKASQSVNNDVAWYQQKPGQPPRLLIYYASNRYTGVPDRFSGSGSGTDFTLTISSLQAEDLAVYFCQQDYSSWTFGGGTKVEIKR ?
result: < 1 pM

Numbers sourced from patent US20260042834A1.
